# Test system: CD2F1 mice, L1210 leukemia ip, survival T/C
# experiment_description: NCI In Vivo Anticancer Drug Screen. Data for tumor model L1210 Leukemia (intraperitoneal) in CD2F1 (CDF1) mice
# condition_details: endpoint: mean survival time; dose: 100.0 mg/kg/injection; schedule: Q04DX003 (ip); vehicle: saline with Tween-80; higher = longer survival
Toxic doses and inconclusive results are not listed.
Below, each entry is listed with its recorded T/C.

Example cases with answers are listed next.
compound | T/C
O=S1(=O)Oc2cccc3cccc1c23 | 102 % of control
O=[N+]([O-])c1ccc(N/N=C2/C3CCC(C3)C2C(O)(C(F)(F)F)C(F)(F)F)c([N+](=O)[O-])c1 (configuration not stated) | 95 % of control
CC1(C)OC(=O)C(c2ccccc2)O1 (configuration not stated) | 100 % of control

The reported T/C of the compound CON(C)CC(O)c1ccccc1 (configuration not stated) was 94 % of control

For reference, reported T/C for COC(=O)C1c2ccccc2-c2ccccc21 stands at 103 % of control

Short answer for CC(=O)NC(CSCC(=O)c1ccccc1)C(=O)O (configuration not stated) : T/C was 98 % of control

Lab book: T/C of COc1cc([N+](=O)[O-])ccc1NC(=O)N(c1ccccc1)C(C)C noted as 101 % of control

ICC1COC(CI)CO1 (configuration not stated) yielded T/C of 105 % of control

Summary for this compound, CCCCCCOc1ccc(/C=N\N=C\c2ccc(OCCCCCC)cc2)cc1 : T/C is 91 % of control

Record summary for Nc1ccc(-c2ccc(N)cc2)cc1 : reported T/C = 101 % of control

Item: N#CC(OC(=O)c1ccccc1)c1cccc([N+](=O)[O-])c1 (configuration not stated) | T/C: 101 % of control

====

# Test system: CD2F1 mice, L1210 leukemia ip, survival T/C
# experiment_description: NCI In Vivo Anticancer Drug Screen. Data for tumor model L1210 Leukemia (intraperitoneal) in CD2F1 (CDF1) mice
# condition_details: endpoint: mean survival time; dose: 100.0 mg/kg/injection; schedule: Q01DX001 (ip); vehicle: saline; higher = longer survival
Toxic doses and inconclusive results are not listed.
result_type: T/C

In the examples that follow, each entry is paired with its recorded T/C.
compound | T/C
COC(=O)CC(NC(=O)C(F)(F)F)C(=O)OC (stereo unspecified) | 108 % of control
CCOC(=O)/N=C/N(C)C | 100 % of control
COc1ccc2c(c1)C1(C)CCC(=O)C(C)C1CC2 (stereo unspecified) | 94 % of control
CC(C)C/C(=N\Nc1ccccc1)c1ccccn1 | 101 % of control
COc1c2occc2c(OC)c2c(=O)cc(/C=C/c3ccccn3)oc12 | 98 % of control
CCOC(CNCc1cccc(OC)c1)OCC | 100 % of control
CC(C)(C)CC(C)(C)c1ccc(OCCOc2ccc(S(=O)(=O)O)cc2[N+](=O)[O-])cc1 | 102 % of control
CC(C)=C(c1ccccc1)c1c(N)ncnc1Cl | 97 % of control

Result for c1c2c(cc3c1OCO3)CNCC2 , tested on CD2F1 mice, L1210 leukemia ip, survival T/C, T/C: 102 % of control

Item CCCCNCCO ; assay system CD2F1 mice, L1210 leukemia ip, survival T/C; T/C reported as 104 % of control

Record Cc1ccc(P(=S)(c2ccccc2)c2ccc(C)c3ccccc23)c2ccccc12 ; system CD2F1 mice, L1210 leukemia ip, survival T/C; T/C = 97 % of control

Record O=S(=O)(O)c1ccc(O)cc1 ; system CD2F1 mice, L1210 leukemia ip, survival T/C; T/C = 103 % of control

# value of T/C, CD2F1 mice, L1210 leukemia ip, survival T/C, item CN(C)C=Nc1c(Cl)cccc1Cl = 103 % of control

Note to self: T/C of O=S(=O)(O)N=Nc1ccc(OCc2ccccc2)cc1 with CD2F1 mice, L1210 leukemia ip, survival T/C was 100 % of control

Record Nc1ccc(Cl)cc1C(=O)c1ccc[nH]1 ; system CD2F1 mice, L1210 leukemia ip, survival T/C; T/C = 101 % of control

The observed T/C for Cc1ccc(OCC2CO2)cc1 (stereo unspecified) when tested with CD2F1 mice, L1210 leukemia ip, survival T/C stands at 104 % of control
